- System: foxtail, giant (giant foxtail, Setaria faberii)
- test_details: Test A greenhouse herbicide test, pre- and postemergence
- Assay type: in vivo
- details: Preemergence, 500 g ai/ha; 0 to 100 scale, 0 no effect, 100 complete control
Hi there, I'd appreciate the recorded Plant response rating, Foxtail, Giant for every entry that follows.
Just the number, please.

Retrieve Plant response rating, Foxtail, Giant on foxtail, giant (giant foxtail, Setaria faberii); query COc1nn(C)c(=O)c(-c2cccc3ccccc23)c1O
100

Retrieve Plant response rating, Foxtail, Giant on foxtail, giant (giant foxtail, Setaria faberii); query Cc1ccc(-c2c(O)cnn(C)c2=O)c2ccccc12
0

Retrieve Plant response rating, Foxtail, Giant on foxtail, giant (giant foxtail, Setaria faberii); query Cc1cc(C)c2sc(C)c(-c3c(OC(=O)OC(C)C)c(C)nn(C)c3=O)c2c1
100

Retrieve Plant response rating, Foxtail, Giant on foxtail, giant (giant foxtail, Setaria faberii); query CC(=O)Oc1c(C)nn(C)c(=O)c1-c1c(C)sc2ccc(C)cc12
90

Retrieve Plant response rating, Foxtail, Giant on foxtail, giant (giant foxtail, Setaria faberii); query COc1nn(C)c(=O)c(-c2c(C)ccc3ccccc23)c1OC(=O)OC(C)C
90

Retrieve Plant response rating, Foxtail, Giant on foxtail, giant (giant foxtail, Setaria faberii); query CC(=O)Oc1c(C)nn(C)c(=O)c1-c1c(C)sc2c(C)cc(C)cc12
100

---

Hi there, I'd appreciate the recorded Plant response rating, Morningglory for every entry that follows.
- System: morningglory (Ipomoea coccinea)
- test_details: Test C greenhouse herbicide test, pre- and postemergence
- Assay type: in vivo
- details: Postemergence, 250 g ai/ha; scale 0 to 100, 0 no effect, 100 complete control; 13 to 15 d
Just the number, please.

Please give measured Plant response rating, Morningglory of the following entry: CCC(=O)Oc1c(C)nn(C)c(=O)c1-c1ccc(Br)c2ccccc12 [Compound 133]
95

Please give measured Plant response rating, Morningglory of the following entry: COc1nn(C)c(=O)c(-c2c(C)ccc3ccccc23)c1O [Compound 54]
100

Please give measured Plant response rating, Morningglory of the following entry: CCOC(=O)Oc1c(C)nn(C)c(=O)c1-c1c(C)ccc2ccccc12 [Compound 73]
95

Please give measured Plant response rating, Morningglory of the following entry: CC(=O)Oc1c(C)nn(C)c(=O)c1-c1c(C)oc2c(C)cc(C)cc12 [Compound 16]
40

Please give measured Plant response rating, Morningglory of the following entry: COC(=O)Oc1c(C)nn(C)c(=O)c1-c1c(C)sc2c(C)cc(C)cc12 [Compound 81]
98

Please give measured Plant response rating, Morningglory of the following entry: CC(=O)Oc1c(C)nn(C)c(=O)c1-c1ccc(F)c2ccccc12 [Compound 90]
100

Please give measured Plant response rating, Morningglory of the following entry: CC(=O)Oc1c(C)nn(C)c(=O)c1-c1c(C)sc2ccc(C)cc12 [Compound 25]
100

Please give measured Plant response rating, Morningglory of the following entry: CCOC(=O)Oc1c(C)nn(C)c(=O)c1-c1c(C)sc2ccc(C)cc12 [Compound 82]
100

Please give measured Plant response rating, Morningglory of the following entry: COc1nn(C)c(=O)c(-c2c(C)ccc3ccccc23)c1OC(C)=O [Compound 138]
100

---

- System: buckwheat, wild (wild buckwheat, Polygonum convolvulus)
- test_details: Test D controlled growth environment herbicide test, pre- and postemergence
- Type: in vivo
- details: postemergence, 62 g ai/ha; scale 0 to 100, 0 no effect, 100 complete control
property_name: Plant response rating, Buckwheat, Wild
Just the number, please.

Please give measured Plant response rating, Buckwheat, Wild of the following entry: CCC(=O)Oc1c(C)nn(C)c(=O)c1-c1c(C)sc2ccc(Cl)cc12
95

Please give measured Plant response rating, Buckwheat, Wild of the following entry: CCOC(=O)Oc1c(C)nn(C)c(=O)c1-c1c(C)sc2ccc(C)cc12
100

Please give measured Plant response rating, Buckwheat, Wild of the following entry: Cc1cc(C)c2sc(C)c(-c3c(OC(=O)OCCCl)c(C)nn(C)c3=O)c2c1
100

Please give measured Plant response rating, Buckwheat, Wild of the following entry: Cc1ccc2sc(C)c(-c3c(O)c(C)nn(C)c3=O)c2c1
75

Please give measured Plant response rating, Buckwheat, Wild of the following entry: Cc1ccc2ccccc2c1-c1c(O)c(C)nn(C)c1=O
100

Please give measured Plant response rating, Buckwheat, Wild of the following entry: COc1nn(C)c(=O)c(-c2c(C)ccc3ccccc23)c1OC(=O)OC(C)C
100

Please give measured Plant response rating, Buckwheat, Wild of the following entry: CC(=O)Oc1c(C)nn(C)c(=O)c1-c1ccc(F)c2ccccc12
90

Please give measured Plant response rating, Buckwheat, Wild of the following entry: CC(=O)Oc1c(C)nn(C)c(=O)c1-c1c(C)sc2ccc(C)cc12
100

---

- Test system: bromegrass, downy (downy bromegrass, Bromus tectorum)
- test_details: Test D controlled growth environment herbicide test, pre- and postemergence
- Format: in vivo
- details: Postemergence, 250 g ai/ha; scale 0 to 100 (0 no effect, 100 complete control)
Hi there, I'd appreciate the recorded Plant response rating, Bromegrass, Downy for every entry that follows.
Just the number, please.

Please give measured Plant response rating, Bromegrass, Downy of the following entry: CCC(=O)Oc1c(C)nn(C)c(=O)c1-c1c(C)sc2c(C)cc(C)cc12 [Compound 28]
70

Please give measured Plant response rating, Bromegrass, Downy of the following entry: CCOC(=O)Oc1c(C)nn(C)c(=O)c1-c1c(C)ccc2ccccc12 [Compound 73]
85

Please give measured Plant response rating, Bromegrass, Downy of the following entry: COc1nn(C)c(=O)c(-c2c(C)ccc3ccccc23)c1O [Compound 54]
75

Please give measured Plant response rating, Bromegrass, Downy of the following entry: CCOC(=O)Oc1c(C)nn(C)c(=O)c1-c1c(C)sc2ccc(C)cc12 [Compound 82]
60

Please give measured Plant response rating, Bromegrass, Downy of the following entry: CC(=O)Oc1c(C)nn(C)c(=O)c1-c1c(C)sc2c(C)cc(C)cc12 [Compound 27]
70

Please give measured Plant response rating, Bromegrass, Downy of the following entry: CC(=O)Oc1c(C)nn(C)c(=O)c1-c1ccc(F)c2ccccc12 [Compound 90]
55

Please give measured Plant response rating, Bromegrass, Downy of the following entry: CC(=O)Oc1c(C)nn(C)c(=O)c1-c1c(C)cc(C)c2ccccc12 [Compound 153]
70

Please give measured Plant response rating, Bromegrass, Downy of the following entry: Cc1ccc2sc(C)c(-c3c(O)c(C)nn(C)c3=O)c2c1 [Compound 1]
20

---

- System: kochia (Kochia scoparia)
- test_details: Test A greenhouse herbicide test, pre- and postemergence
- Assay type: in vivo
- details: Postemergence, 125 g ai/ha; visual rating after approx. 10 d, 0 to 100 scale (0 no effect, 100 complete control)
property_name: Plant response rating, Kochia
Just the number, please.

Retrieve Plant response rating, Kochia on kochia (Kochia scoparia); query CCOC(=O)Oc1c(C)nn(C)c(=O)c1-c1c(CC)ccc2ccccc12
60

Retrieve Plant response rating, Kochia on kochia (Kochia scoparia); query CC(=O)Oc1c(C)nn(C)c(=O)c1-c1c(C)sc2c(C)cc(C)cc12
70

Retrieve Plant response rating, Kochia on kochia (Kochia scoparia); query CCC(=O)Oc1c(C)nn(C)c(=O)c1-c1c(C)sc2c(C)cc(C)cc12
70

Retrieve Plant response rating, Kochia on kochia (Kochia scoparia); query COc1nn(C)c(=O)c(-c2c(C)sc3ccccc23)c1O
90

---

- Test system: waterhemp (common waterhemp, Amaranthus rudis)
- test_details: Test C greenhouse herbicide test, pre- and postemergence
- Type: in vivo
- details: Postemergence, 250 g ai/ha; scale 0 to 100, 0 no effect, 100 complete control; 13 to 15 d
Hi there, I'd appreciate the recorded Plant response rating, Waterhemp for every entry that follows.
Just the number, please.

Please give measured Plant response rating, Waterhemp of the following entry: COc1nn(C)c(=O)c(-c2c(C)sc3ccccc23)c1O
75

Please give measured Plant response rating, Waterhemp of the following entry: CC(=O)Oc1c(C)nn(C)c(=O)c1-c1c(C)cc(C)c2ccccc12
90

Please give measured Plant response rating, Waterhemp of the following entry: CCOC(=O)Oc1c(C)nn(C)c(=O)c1-c1c(C)sc2ccc(C)cc12
98

Please give measured Plant response rating, Waterhemp of the following entry: CC(=O)Oc1c(C)nn(C)c(=O)c1-c1c(C)oc2ccc(C)cc12
40

Please give measured Plant response rating, Waterhemp of the following entry: Cc1cc(C)c2sc(C)c(-c3c(OC(=O)OC(C)C)c(C)nn(C)c3=O)c2c1
70

Please give measured Plant response rating, Waterhemp of the following entry: CC(=O)Oc1c(C#N)nn(C)c(=O)c1-c1c(C)ccc2ccccc12
100

Please give measured Plant response rating, Waterhemp of the following entry: CC(=O)Oc1c(C)nn(C)c(=O)c1-c1c(C)sc2c(C)cc(C)cc12
90

Please give measured Plant response rating, Waterhemp of the following entry: CC(=O)Oc1c(C)nn(C)c(=O)c1-c1c(C)oc2c(C)cc(C)cc12
5

Please give measured Plant response rating, Waterhemp of the following entry: CC(=O)Oc1c(C)nn(C)c(=O)c1-c1c(C)sc2ccc(C)cc12
98
